test system: ML-2; assay: cell viability (% survival relative to DMSO control, bortezomib = 0%); higher = less cytotoxic; conditions: 10000 nM; 72 h
Reported cell viability is given for each of the following compounds.
Value Kind: cell viability (%)

| Compound | Unit Text | Endpoint Value |
| --- | --- | --- |
| Cc1ccccc1C(C(=O)NC1CCCCC1)N(C(=O)Cn1ccnc1C)c1cccc(F)c1 (configuration not stated) | % | 95.1 |
| O=C(O)C[C@@]1(O)C[C@@H](CCCCCCc2ccc(Cl)cc2Cl)OC1=O | % | 106 |
| O=C(O)c1cc(N=Nc2ccc(S(=O)(=O)Nc3ccccn3)cc2)ccc1O | % | 102 |
| CCOC(=O)c1ccc(-c2ccc(OC(=O)N(C)Cc3cccc(-c4ccncc4)c3)cc2)cc1 | % | 106 |
| NC(=O)c1cccc(-c2cccc(OC(=O)NC3CCCCC3)c2)c1 | % | 114 |
| N/C(=N\CCCC(N)C(=O)O)N[N+](=O)[O-] (configuration not stated) | % | 94.5 |
| CCN(CC)CCCC(C)Nc1ccnc2cc(Cl)ccc12 (configuration not stated) | % | 94 |
| CC(C)c1onc(-c2c(Cl)cccc2Cl)c1COc1ccc(/C=C/c2cccc(C(=O)O)c2)c(Cl)c1 | % | 68.5 |
| O=C(O)Cn1nnc(-c2cc(N3CCC(Oc4cc(F)ccc4Br)CC3)no2)n1 | % | 96.7 |
| CCCc1cc(-c2nc(-c3ccc(C)cc3)cs2)ccn1 | % | 29.5 |
| Nc1nc(Cl)nc2c1ncn2[C@H]1C[C@H](O)[C@@H](CO)O1 | % | 2.51 |
| O=c1oc2c(O)c(O)cc3c(=O)oc4c(O)c(O)cc1c4c23 | % | 108 |
| CN(C)c1cc(NC(=O)CNC(C)(C)C)c(O)c2c1C[C@H]1C[C@H]3[C@H](N(C)C)C(=O)C(C(N)=O)C(=O)[C@@]3(O)C(=O)C1C2=O (some centres not stated) | % | 63 |
| CC1(C)[C@@H](O[C@H]2O[C@H](C(=O)O)[C@@H](O)[C@H](O)[C@H]2O[C@@H]2O[C@H](C(=O)O)[C@@H](O)[C@H](O)[C@H]2O)CC[C@]2(C)[C@H]3C(=O)C=C4[C@@H]5C[C@@](C)(C(=O)O)CC[C@]5(C)CC[C@@]4(C)[C@]3(C)CC[C@@H]12 | % | 99.5 |
| COc1ccc(S(=O)(=O)N2CCN(S(=O)(=O)c3ccc4c(c3)OCCO4)CC2)cc1 | % | 102 |
| C=C(C)[C@H]1Cc2c(ccc3c2O[C@@H]2COc4cc(OC)c(OC)cc4[C@@H]2C3=O)O1 | % | 3.18 |
| Cl.NC(CCC(=O)Nc1ccc([N+](=O)[O-])cc1)C(=O)O (configuration not stated) | % | 109 |
